- assayed target: 5-HT2B receptor (h) (Homo sapiens, UniProt P41595)
- Sequence (P41595 whole entry): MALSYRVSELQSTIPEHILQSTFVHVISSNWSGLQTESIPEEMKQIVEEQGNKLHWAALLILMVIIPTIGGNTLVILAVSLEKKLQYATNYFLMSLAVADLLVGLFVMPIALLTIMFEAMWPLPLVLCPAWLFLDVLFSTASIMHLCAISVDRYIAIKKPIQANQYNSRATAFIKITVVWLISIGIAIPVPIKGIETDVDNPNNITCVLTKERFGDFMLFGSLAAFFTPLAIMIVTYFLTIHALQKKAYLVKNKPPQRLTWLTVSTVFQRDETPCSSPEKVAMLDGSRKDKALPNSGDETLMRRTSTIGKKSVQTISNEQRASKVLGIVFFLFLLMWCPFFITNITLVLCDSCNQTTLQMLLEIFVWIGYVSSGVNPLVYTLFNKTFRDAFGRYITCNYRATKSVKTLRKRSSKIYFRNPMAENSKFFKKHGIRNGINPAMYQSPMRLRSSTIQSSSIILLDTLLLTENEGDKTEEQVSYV
- assay method text: Radioligand binding assay, 5-HT2B receptor
readout name: IC50
Could you kindly put the unit after your number?

// query IC50 value for entry Cc1nc2sccn2c(=O)c1CCN1CCC(=C(c2ccc(F)cc2)c2ccc(F)cc2)CC1 [Ritanserin] 7.78 nM

----------
- assayed target: 5-HT1F receptor (h) (Homo sapiens)
- Sequence (P30939 1-366): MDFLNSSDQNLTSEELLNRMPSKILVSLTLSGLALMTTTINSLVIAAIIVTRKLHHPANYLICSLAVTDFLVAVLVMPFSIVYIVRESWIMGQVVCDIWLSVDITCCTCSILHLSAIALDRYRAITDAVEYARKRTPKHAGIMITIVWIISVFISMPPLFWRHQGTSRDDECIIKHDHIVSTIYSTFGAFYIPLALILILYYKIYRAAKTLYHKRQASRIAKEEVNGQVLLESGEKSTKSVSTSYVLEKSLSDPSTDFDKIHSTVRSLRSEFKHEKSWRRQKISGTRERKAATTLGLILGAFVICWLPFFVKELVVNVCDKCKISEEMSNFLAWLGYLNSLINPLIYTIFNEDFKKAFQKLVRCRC
readout name: IC50 (nM)
Field: numeric (nM). Do not append units.

So what's the measured IC50 for this one? CN1CCC(c2c[nH]c3ccc(O)cc23)CC1 0.81
